target: Integrin alpha-V/beta-3 (Homo sapiens, UniProt P05106+P06756); assay: Displacement of [125I]echistatin from AlphaV-beta-3 integrin receptor
Sequence (P05106 27-788 limits assumed): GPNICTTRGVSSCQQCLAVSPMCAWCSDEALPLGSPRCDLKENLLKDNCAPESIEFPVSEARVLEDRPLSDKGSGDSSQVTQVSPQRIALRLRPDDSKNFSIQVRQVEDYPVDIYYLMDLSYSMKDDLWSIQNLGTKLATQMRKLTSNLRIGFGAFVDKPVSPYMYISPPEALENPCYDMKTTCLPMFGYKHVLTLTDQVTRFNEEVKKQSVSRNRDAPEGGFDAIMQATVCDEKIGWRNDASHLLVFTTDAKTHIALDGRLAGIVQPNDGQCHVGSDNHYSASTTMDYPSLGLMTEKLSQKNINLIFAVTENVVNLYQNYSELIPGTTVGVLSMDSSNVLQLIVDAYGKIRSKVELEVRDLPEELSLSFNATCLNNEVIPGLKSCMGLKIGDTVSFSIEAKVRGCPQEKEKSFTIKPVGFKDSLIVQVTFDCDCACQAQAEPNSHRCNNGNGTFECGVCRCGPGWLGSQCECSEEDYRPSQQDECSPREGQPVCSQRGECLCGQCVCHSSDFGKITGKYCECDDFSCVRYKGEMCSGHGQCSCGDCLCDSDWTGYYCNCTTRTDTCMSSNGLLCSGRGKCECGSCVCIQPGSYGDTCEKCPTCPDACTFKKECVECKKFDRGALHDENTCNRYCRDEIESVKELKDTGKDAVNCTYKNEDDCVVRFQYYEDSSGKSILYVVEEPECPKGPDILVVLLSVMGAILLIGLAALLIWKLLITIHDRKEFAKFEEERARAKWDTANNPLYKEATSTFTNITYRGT
Sequence (P06756 31-889 limits assumed): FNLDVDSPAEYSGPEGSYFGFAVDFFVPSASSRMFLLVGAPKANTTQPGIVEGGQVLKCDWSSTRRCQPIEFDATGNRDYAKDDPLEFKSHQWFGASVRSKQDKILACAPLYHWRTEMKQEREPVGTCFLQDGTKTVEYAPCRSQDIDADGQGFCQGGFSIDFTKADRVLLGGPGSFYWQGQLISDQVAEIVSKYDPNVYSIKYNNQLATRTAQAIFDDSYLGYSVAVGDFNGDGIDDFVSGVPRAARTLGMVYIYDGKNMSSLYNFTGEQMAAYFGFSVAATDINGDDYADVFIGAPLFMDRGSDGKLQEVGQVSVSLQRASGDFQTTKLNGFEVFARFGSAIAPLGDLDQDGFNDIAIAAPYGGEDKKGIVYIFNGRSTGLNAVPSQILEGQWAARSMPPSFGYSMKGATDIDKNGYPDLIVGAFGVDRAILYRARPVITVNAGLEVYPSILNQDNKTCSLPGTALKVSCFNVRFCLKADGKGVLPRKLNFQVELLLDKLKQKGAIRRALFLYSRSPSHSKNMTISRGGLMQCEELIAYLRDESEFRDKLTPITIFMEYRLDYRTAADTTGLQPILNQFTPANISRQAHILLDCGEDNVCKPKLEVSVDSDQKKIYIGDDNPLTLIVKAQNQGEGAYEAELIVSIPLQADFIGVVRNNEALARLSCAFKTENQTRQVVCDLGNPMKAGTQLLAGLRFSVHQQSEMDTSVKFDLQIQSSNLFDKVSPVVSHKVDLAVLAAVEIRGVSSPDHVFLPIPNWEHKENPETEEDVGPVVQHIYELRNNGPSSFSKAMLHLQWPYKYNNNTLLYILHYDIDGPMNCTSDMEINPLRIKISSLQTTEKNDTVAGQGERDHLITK
Sequence (P06756 891-1048 limits assumed): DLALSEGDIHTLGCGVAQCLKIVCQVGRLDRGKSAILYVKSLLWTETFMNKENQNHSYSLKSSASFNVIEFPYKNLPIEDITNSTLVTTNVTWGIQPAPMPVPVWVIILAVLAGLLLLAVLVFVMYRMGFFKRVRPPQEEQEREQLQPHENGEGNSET
Peptide text beside a SMILES is read from it. * marks the point of attachment. Cypate = CC1(C)C(/C=C/C=C/C=C/C=C2/N(CCC(=O)*)c3ccc4ccccc4c3C2(C)C)=[N+](CCC(=O)O)c2ccc3ccccc3c21; X3 = CC1(C)C(/C=C/C=C/C=C/C=C2/N(CCC(=O)O)c3ccc4ccccc4c3C2(C)C)=[N+](CC(=O)*)c2ccc3ccccc3c21
List of IC50 values.

Below: 3 compounds and their reported IC50.
So, CC1(C)C(/C=C/C=C/C=C/C=C2/N(CCC(=O)N[C@@H](CCCN=C(N)N)C(=O)NCC(=O)N[C@@H](CC(=O)O)C(=O)N[C@@H](CCCN=C(N)N)C(=O)NCC(=O)N[C@@H](CC(=O)O)C(=O)N[C@@H](CCCN=C(N)N)C(=O)NCC(=O)N[C@@H](CC(=O)O)C(=O)N[C@@H](CCCN=C(N)N)C(=O)NCC(=O)N[C@@H](CC(=O)O)C(N)=O)c3ccc4ccccc4c3C2(C)C)=[N+](CCC(=O)O)c2ccc3ccccc3c21 (Cypate-RGDRGDRGDRGD-NH2) ? Its IC50 was 259 nM

Entry CC1(C)C(/C=C/C=C/C=C/C=C2/N(CCC(=O)N[C@@H](CCCN=C(N)N)C(=O)NCC(=O)N[C@@H](CC(=O)O)C(=O)N[C@@H](CCCN=C(N)N)C(=O)NCC(=O)N[C@@H](CC(=O)O)C(N)=O)c3ccc4ccccc4c3C2(C)C)=[N+](CC(=O)N[C@@H](CCCN=C(N)N)C(=O)NCC(=O)N[C@@H](CC(=O)O)C(=O)N[C@@H](CCCN=C(N)N)C(=O)NCC(=O)N[C@@H](CC(=O)O)C(N)=O)c2ccc3ccccc3c21 , IC50 reported as 104 nM

Data point: CC1(C)C(/C=C/C=C/C=C/C=C2/N(CCC(=O)O)c3ccc4ccccc4c3C2(C)C)=[N+](CC(=O)N[C@@H](CCCN=C(N)N)C(=O)NCC(=O)N[C@@H](CC(=O)O)C(=O)N[C@@H](CCCN=C(N)N)C(=O)NCC(=O)N[C@@H](CC(=O)O)C(=O)N[C@@H](CCCN=C(N)N)C(=O)NCC(=O)N[C@@H](CC(=O)O)C(N)=O)c2ccc3ccccc3c21 (X3-RGDRGDRGD-NH2) ; IC50 = 481 nM

Continuing:
Quick note, IC50 for CC1(C)C(/C=C/C=C/C=C/C=C2/N(CCC(=O)O)c3ccc4ccccc4c3C2(C)C)=[N+](CC(=O)N[C@@H](CCCN=C(N)N)C(=O)NCC(=O)N[C@@H](CC(=O)O)C(=O)N[C@@H](CCCN=C(N)N)C(=O)NCC(=O)N[C@@H](CC(=O)O)C(N)=O)c2ccc3ccccc3c21 landed at 730 nM

----------
molecular target: Integrin alpha-V/beta-3 (Homo sapiens, UniProt P05106+P06756); experiment: Displacement of [125I]echistatin from AlphaV-beta-3 integrin receptor
measurement type: IC50 (nM)
Give the quantity in nM, number only.

Measured IC50, CC1(C)C(/C=C/C=C/C=C/C=C2/N(CCC(=O)NCCCC[C@@H]3NC(=O)[C@@H](Cc4ccccc4)NC(=O)[C@H](CC(=O)O)NC(=O)CNC(=O)[C@H](CCCNC(=N)N)NC3=O)c3ccc4ccccc4c3C2(C)C)=[N+](CCC(=O)O)c2ccc3ccccc3c21 : 63.9
